assayExplanation: in vivo
conditionLabel: mouse, in vivo, iv, male Swiss Webster mice, tail vein, 7 days; read-out: LD50, males, as iodine
readoutName: LD50 at 168 h (mg/kg)
Form entry: value (mg/kg) — number only.

What LD50 at 168 h value was documented for this compound, CC(=O)N(CC1COC(=O)O1)c1c(I)c(C(=O)NCC2COC(=O)O2)c(I)c(C(=O)N2CCOC2=O)c1I (stereo not shown) [IX-C, cyclic carbonate of IOXILAN] ?
1400

* * *

assayExplanation: in vivo
conditionLabel: mouse, in vivo, iv, female Swiss Webster mice, tail vein, 7 days; read-out: LD50, females, as iodine
Protocol: Swiss Webster mice (Harlan Sprague Dawley Inc., Indianapolis, Ind.) weighing between 25 and 30 g were given doses ranging from 0.2 to 1 ml/mouse. Five animals were used for each dose. No anesthesia was used for injection. Following the injection, animals were monitored daily for 7 days. The percentage survival vs. dose curve was constructed to estimate LD50.
readoutName: LD50 at 168 h (mg/kg)
Form entry: value (mg/kg) — number only.

What LD50 at 168 h value was documented for this molecule, CC(=O)N(CC1COC(=O)O1)c1c(I)c(C(=O)NCC2COC(=O)O2)c(I)c(C(=O)N2CCOC2=O)c1I (stereo not shown) [IX-C, cyclic carbonate of IOXILAN] ?
1200

* * *

assayExplanation: in vivo
conditionLabel: mouse, in vivo, iv, female Swiss Webster mice; corresponding IX-C dose; read-out: LD50, females, as IX-C
readoutName: LD50 at 168 h (mg/kg)
Form entry: value (mg/kg) — number only.

What LD50 at 168 h value was documented for this molecule, CC(=O)N(CC1COC(=O)O1)c1c(I)c(C(=O)NCC2COC(=O)O2)c(I)c(C(=O)N2CCOC2=O)c1I (stereo not shown) [IX-C, cyclic carbonate of IOXILAN] ?
2600
